# System: normal primary NK cells, pool 2 (3 donors) (IL-2 2.5 ng/mL)
# ASSAY_NAME: relative IC50 (inflection point of fitted viability curve, relative to fitted max inhibition); higher = less sensitive
# ASSAY_CONDITIONS: 72 h
I would appreciate it if you labelled entries Yes when relative IC50 is 0.8 µM or higher, otherwise No.

> print(dat)
                                   molecule  discrete.label
1  CN(C)/N=N/c1[nH]cnc1C(N)=O [Dacarbazine]             Yes
2  Cc1nc(Nc2n[nH]c3c2CN(C(=O)N[C@H](CN(C)C)c2ccccc2)C3(C)C)c2sccc2n1              No
3  C[C@@H](Oc1ccc2[nH]nc(/C=C/c3cnn(CCO)c3)c2c1)c1c(Cl)cncc1Cl              No
4  Cn1cc(CNCC2CCN(c3ncc(C(=O)NO)cn3)CC2)c2ccccc21 [Quisinostat]              No
5  Cc1cc(OCc2nnc(SC3CCCC3)n2-c2cccnc2)ccc1-c1ccc(S(C)(=O)=O)cc1 [NMS-873]              No
6  CN(C)Cc1ccc(S(=O)(=O)n2ccc(/C=C/C(=O)NO)c2)cc1 [Resminostat]             Yes
7  Cc1ncc(-c2ccnc(Nc3ccc(S(C)(=O)=O)cc3)n2)n1C(C)C [AZD-5438]             Yes
8  CO[C@@H]1[C@H](N(C)C(=O)c2ccccc2)C[C@H]2O[C@]1(C)n1c3ccccc3c3c4c(c5c6ccccc6n2c5c31)C(=O)NC4 [Midostaurin]              No
9              N.N.[Cl][Pt][Cl] [Cisplatin]             Yes

====

Reported percent inhibition of viability values for a set of molecules
# System: KHYG-1 (IL-2 2.5 ng/mL)
# ASSAY_NAME: percent inhibition of viability; higher = more inhibition
# ASSAY_CONDITIONS: 72 h; 10000 nM
RECORDED_ENDPOINT: percent inhibition of viability (%)

> print(dat)
                                   molecule                recorded.endpoint  output.unit  assay.value
1  COc1cc2ncnc(Oc3cccc(NC(=O)Nc4cc(C(C)(C)C(F)(F)F)on4)c3)c2cc1OC (max concentration tested 10000 nM)  percent inhibition of viability            %         22.6
2  COc1ccc(-c2nc(N3CCOCC3)c3sc(CN(C)c4ncc(C(=O)NO)cn4)cc3n2)cn1 [CUDC-907] (max concentration tested 10000 nM)  percent inhibition of viability            %         98.7
3  Nc1ncnc2c1c(COc1cccc(Cl)c1)nn2C1CCOCC1 (max concentration tested 10000 nM)  percent inhibition of viability            %         2.95
4  Nc1cc(F)ccc1NC(=O)/C=C/c1cnn(C/C=C/c2ccccc2)c1 [RGFP966] (max concentration tested 10000 nM)  percent inhibition of viability            %         43.4

====

# Test system: normal primary NK cells, pool 3 (3 donors) (IL-2 2.5 ng/mL)
# ASSAY_NAME: percent inhibition of viability; higher = more inhibition
# ASSAY_CONDITIONS: 72 h; 0.1 nM

COMPOUND	TARGET_UNDER_TEST	percent inhibition of viability [%]
C[C@@H](Oc1ccc2[nH]nc(/C=C/c3cnn(CCO)c3)c2c1)c1c(Cl)cncc1Cl (max concentration tested 1000 nM)	normal primary NK cells, pool 3 (3 donors) (IL-2 2.5 ng/mL)	-11.8
C/C(=C\c1csc(C)n1)[C@@H]1C[C@@H]2O[C@]2(C)CCC[C@H](C)[C@H](O)[C@@H](C)C(=O)C(C)(C)[C@@H](O)CC(=O)N1 [Ixabepilone] (max concentration tested 1000 nM)	normal primary NK cells, pool 3 (3 donors) (IL-2 2.5 ng/mL)	-11.4
O=C(Nc1c[nH]nc1-c1nc2ccc(CN3CCOCC3)cc2[nH]1)NC1CC1 [AT9283] (max concentration tested 1000 nM)	normal primary NK cells, pool 3 (3 donors) (IL-2 2.5 ng/mL)	-15.9
CC(C)C[C@H](NC(=O)[C@H](CCc1ccccc1)NC(=O)CN1CCOCC1)C(=O)N[C@@H](Cc1ccccc1)C(=O)N[C@@H](CC(C)C)C(=O)[C@@]1(C)CO1 [Carfilzomib] (max concentration tested 1000 nM)	normal primary NK cells, pool 3 (3 donors) (IL-2 2.5 ng/mL)	-8.33
CON(C)C(=O)N1N=C(c2cc(F)ccc2F)S[C@@]1(CCCN)c1ccccc1 [Filanesib] (max concentration tested 1000 nM)	normal primary NK cells, pool 3 (3 donors) (IL-2 2.5 ng/mL)	-8.61
O=C1c2c(O)ccc(O)c2C(=O)c2c(NCCNCCO)ccc(NCCNCCO)c21 [Mitoxantrone] (max concentration tested 1000 nM)	normal primary NK cells, pool 3 (3 donors) (IL-2 2.5 ng/mL)	-18.6
CNC(=O)c1cc(Oc2ccc(NC(=O)Nc3ccc(Cl)c(C(F)(F)F)c3)cc2)ccn1 [Sorafenib] (max concentration tested 1000 nM)	normal primary NK cells, pool 3 (3 donors) (IL-2 2.5 ng/mL)	-4.53
CC(C)n1nc(-c2ccc3oc(N)nc3c2)c2c(N)ncnc21 [MLN-0128] (max concentration tested 1000 nM)	normal primary NK cells, pool 3 (3 donors) (IL-2 2.5 ng/mL)	-6.15
Cc1ccc(NC(=O)c2ccc(CN3CC[C@H](N(C)C)C3)c(C(F)(F)F)c2)cc1Nc1nccc(-c2cncnc2)n1 [Bafetinib] (max concentration tested 1000 nM)	normal primary NK cells, pool 3 (3 donors) (IL-2 2.5 ng/mL)	-3.5

====

# System: DERL-7 (IL-2 2.5 ng/mL)
# ASSAY_NAME: percent inhibition of viability; higher = more inhibition
# ASSAY_CONDITIONS: 72 h; 10 nM
RECORDED_ENDPOINT: percent inhibition of viability (%)

MOLECULE	TARGET_UNDER_TEST	OUTPUT_UNIT	ASSAY_VALUE
O=C(NOC[C@H](O)CO)c1ccc(F)c(F)c1Nc1ccc(I)cc1F (max concentration tested 1000 nM)	DERL-7 (IL-2 2.5 ng/mL)	%	16.2
C/C(=C\c1csc(C)n1)[C@@H]1C[C@@H]2O[C@]2(C)CCC[C@H](C)[C@H](O)[C@@H](C)C(=O)C(C)(C)[C@@H](O)CC(=O)O1 [Patupilone] (max concentration tested 1000 nM)	DERL-7 (IL-2 2.5 ng/mL)	%	98.8
CC(C)C[C@H](NC(=O)[C@H](CCc1ccccc1)NC(=O)CN1CCOCC1)C(=O)N[C@@H](Cc1ccccc1)C(=O)N[C@@H](CC(C)C)C(=O)[C@@]1(C)CO1 [Carfilzomib] (max concentration tested 1000 nM)	DERL-7 (IL-2 2.5 ng/mL)	%	101
Cc1c(NC(=O)OC[C@@H]2COCCN2)cn2ncnc(Nc3ccc4c(cnn4Cc4cccc(F)c4)c3)c12 (max concentration tested 10000 nM)	DERL-7 (IL-2 2.5 ng/mL)	%	-0.41
CC(=O)Nc1ccc(C(=O)Nc2ccccc2N)cc1 [Tacedinaline] (max concentration tested 1000 nM)	DERL-7 (IL-2 2.5 ng/mL)	%	4.2
COc1cc2c(N3CCN(C(=O)Nc4ccc(OC(C)C)cc4)CC3)ncnc2cc1OCCCN1CCCCC1 [Tandutinib] (max concentration tested 1000 nM)	DERL-7 (IL-2 2.5 ng/mL)	%	1.63
Cc1nc(C(=O)NCC(=O)O)c(O)c2ccc(Oc3ccccc3)cc12 [FG-4592] (max concentration tested 10000 nM)	DERL-7 (IL-2 2.5 ng/mL)	%	3.45
Nc1cc(F)ccc1NC(=O)/C=C/c1cnn(C/C=C/c2ccccc2)c1 [RGFP966] (max concentration tested 10000 nM)	DERL-7 (IL-2 2.5 ng/mL)	%	-2.09

====

# Tested on: KHYG-1 (IL-2 2.5 ng/mL)
# ASSAY_NAME: percent inhibition of viability; higher = more inhibition
# ASSAY_CONDITIONS: 72 h; 100 nM
RECORDED_ENDPOINT: percent inhibition of viability

> print(dat)
                                   molecule  assay.value
1  CN(C)/N=N/c1[nH]cnc1C(N)=O [Dacarbazine] (max concentration tested 10000 nM)       -1.85%
2  Cc1cn(-c2cc(NC(=O)c3ccc(C)c(Nc4nccc(-c5cccnc5)n4)c3)cc(C(F)(F)F)c2)cn1 [Nilotinib] (max concentration tested 10000 nM)        11.9%
3  S=C(NCc1ccc2c(c1)OCO2)N1CCN(c2ncnc3c2oc2ccccc23)CC1 [Amuvatinib] (max concentration tested 10000 nM)       -1.04%

====

# Test system: DERL-7 (IL-2 2.5 ng/mL)
# ASSAY_NAME: relative IC50 (inflection point of fitted viability curve, relative to fitted max inhibition); higher = less sensitive
# ASSAY_CONDITIONS: 72 h
Reported relative IC50 values for a set of compounds

CHEMICAL_SMILES	relative IC50 [nM]
CS(=O)(=O)N1CCc2c(-c3cnc(N)nc3)nc(N3CCOCC3)nc21	1000
C[C@@H](Oc1ccc2[nH]nc(/C=C/c3cnn(CCO)c3)c2c1)c1c(Cl)cncc1Cl	91.8
CN1CCc2c(c3ccccc3n2Cc2ccc(C(=O)NO)cc2)C1	3400
CON(C)C(=O)N1N=C(c2cc(F)ccc2F)S[C@@]1(CCCN)c1ccccc1	3.14
CN(C[C@@H]1COCCO1)S(=O)(=O)Nc1ccc2ccc3ncc(-c4cnn(C)c4)cc3c(=O)c2c1	1770
Cc1cc(Nc2cc(N3CCN(C)CC3)nc(Sc3ccc(NC(=O)C4CC4)cc3)n2)n[nH]1	46.3
CN(C)Cc1ccc(S(=O)(=O)n2ccc(/C=C/C(=O)NO)c2)cc1	1040
CO[C@H]1C[C@@H]2CC[C@@H](C)[C@@](O)(O2)C(=O)C(=O)N2CCCC[C@H]2C(=O)O[C@H]([C@H](C)C[C@@H]2CC[C@@H](O)[C@H](OC)C2)CC(=O)[C@H](C)/C=C(\C)[C@@H](O)[C@@H](OC)C(=O)[C@H](C)C[C@H](C)/C=C/C=C/C=C/1C	5
C/C(=C\c1csc(C)n1)[C@@H]1C[C@@H]2O[C@]2(C)CCC[C@H](C)[C@H](O)[C@@H](C)C(=O)C(C)(C)[C@@H](O)CC(=O)O1	2.74
CC(C)C[C@H](NC(=O)[C@H](CCc1ccccc1)NC(=O)CN1CCOCC1)C(=O)N[C@@H](Cc1ccccc1)C(=O)N[C@@H](CC(C)C)C(=O)[C@@]1(C)CO1	0.92
CCn1nnc2c(N3CCOCC3)nc(-c3ccc(NC(=O)Nc4ccc(C(=O)N5CCN(C)CC5)cc4)cc3)nc21	89.1
CO[C@H]1/C=C\C=C(/C)C(=O)NC2=CC(=O)C(NCCN(C)C)=C(C[C@@H](C)C[C@H](OC)[C@H](O)[C@@H](C)/C=C(\C)[C@@H]1OC(N)=O)C2=O	49.1

Measured values drawn from the supplement of paper PMC5908809 for this set.
